Cited source for all entries: patent US10364256B2

Reported IC50 is given for each of the following molecules.
Biological target: full length Keap1 protein / full length NRF2 protein (Homo sapiens)
Construct: full length NRF2 protein and full length Keap1 protein (Keap1 exists a dimer) are used; His
Sequence (Q14145 whole entry): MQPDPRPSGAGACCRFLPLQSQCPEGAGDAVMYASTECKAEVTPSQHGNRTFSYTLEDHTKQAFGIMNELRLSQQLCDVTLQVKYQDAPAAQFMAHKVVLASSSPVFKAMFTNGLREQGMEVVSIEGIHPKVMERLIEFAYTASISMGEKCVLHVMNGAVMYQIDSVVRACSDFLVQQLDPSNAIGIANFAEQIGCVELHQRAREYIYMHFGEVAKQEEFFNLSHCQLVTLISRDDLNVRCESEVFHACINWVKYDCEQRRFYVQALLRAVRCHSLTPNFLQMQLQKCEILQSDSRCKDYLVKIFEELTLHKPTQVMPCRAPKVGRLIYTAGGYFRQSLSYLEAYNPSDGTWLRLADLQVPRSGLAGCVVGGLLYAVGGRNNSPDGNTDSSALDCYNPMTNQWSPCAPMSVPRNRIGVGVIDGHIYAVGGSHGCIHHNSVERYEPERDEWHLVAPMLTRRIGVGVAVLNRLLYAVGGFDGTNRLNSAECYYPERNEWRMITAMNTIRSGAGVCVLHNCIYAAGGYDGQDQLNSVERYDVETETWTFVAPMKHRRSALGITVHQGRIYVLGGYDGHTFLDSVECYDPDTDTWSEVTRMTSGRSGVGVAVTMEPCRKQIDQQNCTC
Experiment: NRF2-Keap1 TR-FRET Assay
Type: binding
Conditions: 25 nM Keap1-FlagHis and 50 nM biotin-NRF2 added
From the text: In the NRF2-Keap1 TR-FRET (time-resolved fluorescence resonance energy transfer) assay, full length NRF2 protein and full length Keap1 protein (Keap1 exists a dimer) are used. The assay detects the ability of compound to displace the binding of FlagHis-tagged Keap1 with biotinylated, Avi-tagged NRF2 protein. […]

Before answering, review these 4 worked examples.
O=C(O)c1cnn(-c2cccc(-c3cccc(C(=O)N4C5CCC4COC5)c3F)c2)c1C1CC1 = 1000 to 10000 nM
Cn1cc(C2CC2c2c(C(=O)O)cnn2-c2cc(C#N)cc(-c3cccc(OCC4CCCCC4)c3)c2)nn1 (stereo not shown) = 10000 to 100000 nM
CCCN(CC1CC1)C(=O)c1cccc(-c2cccc(-n3ncc(C(=O)O)c3C3CC3)c2)c1Cl = 1000 to 10000 nM
CCC[C@@H]1CCCCN1C(=O)c1cccc(-c2cccc(-n3ncc(C(=O)O)c3C3CC3c3cnn(C)c3)c2)c1F (stereo partly shown) = 10 to 100 nM

The measured IC50 associated with COC(c1cccc(-c2cccc(-n3ncc(C(=O)O)c3C3CC3c3cn(C)nn3)c2)c1)C1CCCC1 (stereo not shown) reads 100 to 1000 nM

The measured IC50 associated with CC1CCC(C)N1C(=O)c1cccc(-c2cccc(-n3ncc(C(=O)O)c3C3CC3)c2)c1F (stereo not shown) reads 1000 to 10000 nM
